Molecular target: Dipeptidyl peptidase 1 (Rattus norvegicus, UniProt P80067)
Sequence (P80067 whole entry): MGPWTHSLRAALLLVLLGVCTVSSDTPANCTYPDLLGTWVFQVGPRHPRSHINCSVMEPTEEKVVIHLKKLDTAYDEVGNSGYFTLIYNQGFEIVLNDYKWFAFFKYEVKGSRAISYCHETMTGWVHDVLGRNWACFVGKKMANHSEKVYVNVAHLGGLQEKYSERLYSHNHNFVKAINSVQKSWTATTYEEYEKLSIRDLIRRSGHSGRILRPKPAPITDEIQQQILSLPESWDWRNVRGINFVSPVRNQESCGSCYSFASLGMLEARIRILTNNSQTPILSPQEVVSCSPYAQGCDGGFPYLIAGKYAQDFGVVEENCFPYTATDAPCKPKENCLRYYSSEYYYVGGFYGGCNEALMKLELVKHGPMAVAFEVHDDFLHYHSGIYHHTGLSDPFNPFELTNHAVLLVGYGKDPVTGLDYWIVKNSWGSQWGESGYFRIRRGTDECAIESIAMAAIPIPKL
Quantity Name: IC50 (µM)
Write it as a number; the unit µM goes unstated.

Ask | Please give the documented IC50 of `CC(=O)N[C@@H](Cc1ccc(O)cc1)C(=O)N[C@@H](Cc1ccccc1)C(=O)N[C@@H](CCCNC(=N)N)C(=O)COC(=O)c1c(C)cccc1C`
Reply | 3.6
